# target of assay: recombinant human BAFF-Fc (Sino Biological) (human, UniProt Q9Y275 134-285)
# Sequence (Q9Y275 134-285): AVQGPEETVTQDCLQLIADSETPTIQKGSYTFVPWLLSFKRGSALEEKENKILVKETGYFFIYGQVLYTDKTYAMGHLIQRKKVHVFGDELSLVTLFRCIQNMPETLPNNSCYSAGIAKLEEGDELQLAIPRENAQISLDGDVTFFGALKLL
# protocol text: cell-based or functional assay
Listed here are binders together with their documented CELLULAR IC50.

Provide one value: measured CELLULAR IC50 of ID2-101A09 (VNAR, Nurse shark VNAR single domain, monomer) VNAR: AARVDQTPQTITKETGESLTINCVLRDNNCALSTTYWYRKKSGSTNEESISKGGRYVETVNSGSKSFSLRINDLTVEDSGTYRCKVREDPLMCRYYLDRYRDVYGGGTVVTVNA
215 nM

Provide one value: measured CELLULAR IC50 of ID2-101A05 (VNAR, Nurse shark VNAR single domain, tested as monomer) VNAR: AARVDQTPQTITKETGESLTINCVLRDNNCALSTTYWYRKKSGSTNEENISKGGRYVETVNSGSKSFSLRINDLTVEDSGTYRCKVSKDWLLCRDRGRRETDVYGDGTAVTVNA
135 nM

Provide one value: measured CELLULAR IC50 of ID2-101B07 (VNAR, Nurse shark VNAR single domain, monomer) VNAR: AARVDQTPRSVTKETGESLTINCVLRDSICALSSTHWYRKKSGSTNEESISKGGRYVETVNSGSKSFSLRINDLTVEDSGTYRCKVHGGRSTGLCGDVLLAGDVYGGGTAVTVNA
60 nM

Provide one value: measured CELLULAR IC50 of ID2-101A07 (VNAR, Nurse shark VNAR single domain, tested as monomer) VNAR: AARVDQTPQTITKETGESLTINCVLRDSNCALSNLYWYRKKSGSTNEESISLGGRYVETVNSGSKSFSLRINDLTVEDSGTYRCKVQLPYDPLTKECILGRMDVYGDGTAVTVNA
58 nM

Provide one value: measured CELLULAR IC50 of ID2-101B10 (VNAR, Nurse shark VNAR single domain, monomer) VNAR: AARVDQTPQTITKETGESLTINCVLRDSNCALSSTYWYRKKSGSTNEESISKGGRYVETVNSGSKSFSLRINDLTVEDSGTYRCKVRIDPLLCNASYVKWDDVYGGGTVVTVNA
~100 nM

Reference for the values: patent US20200024354A1
